Measured values drawn from the supplement of paper PMC11417369 for this set.

System: PfSIP2 AP2 domain 1 (GST-tagged)
Experiment: gcPBM binding intensity (ln(normalized median fluorescence intensity)); higher = stronger DNA binding
In all, about 25,000 sequences were measured (“ln(normalized median fluorescence intensity)”: median about 7.1, highest 2% from about 10 on). This is one part of a sample in which the highest values are shown more often than they occur.
REPORTED_ENDPOINT: gcPBM binding intensity (ln)
Keep the answer to the number alone.

Some solved entries appear below for comparison.
INSERT INTO results (seq_string, measured_result) VALUES
  ('GCACATTTTTTTATCACACATATAATTACAATATAA [CACACA_site5585]', 7.74),
  ('TATGATACATAAATATGTACGTATAATATATATTTA [XGTACX_site7002]', 6.96),
  ('CTTTGGTTATAACACACATGCACACGTAAATAAATA [TGCATGCA_site976]', 7.63);

Query (sequence): ATTCTAAATATCAGTGCACACATTTCTACGCAAAGT [CACACA_site474] ; field requested: gcPBM binding intensity (ln)
9.9

Query (sequence): AATAAATATCAATACACACACACAAAAGTGAATAAA [CACACA_site3763] ; field requested: gcPBM binding intensity (ln)
6.99

Query (sequence): AAGTATAGTCTTACATATATATATATATATATATAT [GTGCAC_negctrl_site280] ; field requested: gcPBM binding intensity (ln)
9.42

Query (sequence): GAAAAATTAAAAATAACACACACATATATATATTTA [CACACA_site8896] ; field requested: gcPBM binding intensity (ln)
6.98

Query (sequence): TGCCCTTTGGTTATAACACACATGCACCCGTAAATA [CACACA_site3842] ; field requested: gcPBM binding intensity (ln)
11.9

Query (sequence): `ATATATTTTTGTAGTGTGCACGTTTATATGGTGAAA` ; field requested: gcPBM binding intensity (ln)
10.3

Query (sequence): `TAAAATAATATTTATGTGCACATATAATTATTAATT` ; field requested: gcPBM binding intensity (ln)
8.71

###

Tested on: PfSIP2 AP2 domain 1 (GST-tagged)
Test: gcPBM binding intensity (ln(normalized median fluorescence intensity)); higher = stronger DNA binding
Whole data set: some 25,000 sequences, median “ln(normalized median fluorescence intensity)” near 7.1, cut for the highest 2% near 10. The entries come from a sample that favours the highest values as a whole.
Examples of sequences with documented gcPBM binding intensity (ln) follow.

Some solved entries appear below for comparison.
INSERT INTO assay_data (seq_string, measured_result) VALUES
  ('ATTATTTGTAATATAACACACACAAAAAAAGACTCG [CACACA_site8487]', 7.1),
  ('ATTTTCACCTGAACGGTGCATATTTAATTTTAGGTT', 10.5),
  ('GTTATAATTGAACTAGTGCATAAATATATTTTAATT [GTGCAC_site9851]', 9.01),
  ('ATTTCATATGGTCAACGTACTCATGCATCCCTCCTT [XGTACX_site437]', 6.86),
  ('TTTTTATAATAAAAAAATATAACTATATTAAGCCAC [CACACA_negctrl_site555]', 7.1),
  ('ATATATATATATATATGTACATAGAGAAGTATCTTT [XGTACX_site4737]', 9.91),
  ('TTTGATTTTAATGTGTGTACACATTTATTTATATAA [XGTACX_site4806]', 7.74),
  ('TTGTTGTATTATTTATGTACATATGTATATGTATAT [XGTACX_site1315]', 7.17);

Query gcPBM binding intensity (ln) on PfSIP2 AP2 domain 1 (GST-tagged) for ATATATATATATATAACACACGTGTATTTATCTGTA [CACACA_site5922]
9.33

Query gcPBM binding intensity (ln) on PfSIP2 AP2 domain 1 (GST-tagged) for `GAAGTAGATGGAAAAGTGCACTGTAATGGTTATATT`
10.3
